Data origin, for the record: patent US9199962B2

Known IC50 of a selection of compounds
Target: GST-FAK (N-terminal GST fusion with truncated human FAK (376-1052 (end) amino acids)) (Homo sapiens, UniProt Q05397)
Construct: truncated human FAK (376-1052 (end) amino acids)
Sequence (Q05397 376-1052): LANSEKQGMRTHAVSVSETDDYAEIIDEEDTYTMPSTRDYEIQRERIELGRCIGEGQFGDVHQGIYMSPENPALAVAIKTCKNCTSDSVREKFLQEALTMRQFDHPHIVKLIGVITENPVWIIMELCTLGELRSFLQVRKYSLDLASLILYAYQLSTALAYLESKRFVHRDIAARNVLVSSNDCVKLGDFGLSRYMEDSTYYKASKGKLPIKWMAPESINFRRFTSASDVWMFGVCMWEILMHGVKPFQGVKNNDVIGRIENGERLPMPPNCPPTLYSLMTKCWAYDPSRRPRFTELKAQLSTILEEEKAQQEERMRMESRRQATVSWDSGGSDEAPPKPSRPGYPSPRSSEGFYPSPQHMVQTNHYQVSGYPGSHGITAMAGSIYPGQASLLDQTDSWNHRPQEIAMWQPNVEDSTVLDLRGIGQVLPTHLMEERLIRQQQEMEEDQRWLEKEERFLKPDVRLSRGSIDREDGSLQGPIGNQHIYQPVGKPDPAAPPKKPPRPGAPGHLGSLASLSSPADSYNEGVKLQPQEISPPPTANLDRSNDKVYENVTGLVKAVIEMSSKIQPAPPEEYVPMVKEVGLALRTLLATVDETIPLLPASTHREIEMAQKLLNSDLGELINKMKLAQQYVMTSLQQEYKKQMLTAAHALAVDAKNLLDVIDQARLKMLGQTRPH
Assay: Biochemical enzyme assay for FAK activity (Caliper LC3000 mobility shift)
Conditions: Table 5; 100 uM ATP; read-out: FAK IC50

COc1cncc(-c2nccc(NCCc3ccccc3OC)n2)c1 : 1000 to 10000 nM
CC(=O)NCCNC(=O)c1cc(NCc2ncccc2F)nc(-c2cncc(C(F)(F)F)c2)n1 : 100 to 1000 nM

In: Form field: reported IC50 of FC(F)(F)c1cncc(-c2nccc(NCc3cccnc3)n2)c1
Out: 100 to 1000 nM

In: Likewise for COc1cncc(-c2nccc(NCc3ccccc3-c3ccccc3S(C)(=O)=O)n2)c1 ?
Out: > 10000 nM

In: Likewise for CS(=O)(=O)c1ccccc1-c1ccccc1CNc1ccnc(-c2cncc(C(F)(F)F)c2)n1 ?
Out: 1000 to 10000 nM

In: Likewise for Fc1ccc(CNc2nc(-c3cncc(C(F)(F)F)c3)nc3c2ncn3C2CCCCO2)c(F)c1 (centres unmarked) ?
Out: 100 to 1000 nM

In: Likewise for O=C(Nc1cccnc1)c1cc(NCc2ccc(F)cc2F)nc(-c2cncc(C(F)(F)F)c2)n1 ?
Out: 100 to 1000 nM

* * *

Biological target: GST-FAK (N-terminal GST fusion with truncated human FAK (376-1052 (end) amino acids)) (Homo sapiens, UniProt Q05397)
Construct: truncated human FAK (376-1052 (end) amino acids)
Assay: Biochemical enzyme assay for FAK activity (Caliper LC3000 mobility shift)
Conditions: Table 3; 100 uM ATP; read-out: FAK IC50
measure name: IC50

These solved cases illustrate the format of a correct answer.
Cc1cc(NCc2ccccc2)nc(-c2cccnc2)n1 [Compound 141] : > 10 µM
CNC[C@H](Nc1ccnc(-c2cccnc2N)n1)c1ccccc1 [Compound 147] : > 10 µM
CS(=O)(=O)c1ccc(CNc2ccnc(-c3cccnc3N)n2)cc1 [Compound 99] : > 10 µM

In: Form field: reported IC50 of Nc1ccc(-c2nccc(NCc3ccccc3C(F)(F)F)n2)cn1 [Compound 94]
Out: 1 to 10 µM

In: Likewise for FC(F)(F)c1ccccc1CNc1ccnc(-c2cccnc2)n1 [Compound 89] ?
Out: 0.1 to 1 µM

In: Likewise for Nc1ncccc1-c1nccc(NCc2ccncc2)n1 [Compound 128] ?
Out: > 10 µM

* * *

Molecular target: GST-FAK (N-terminal GST fusion with truncated human FAK (376-1052 (end) amino acids)) (Homo sapiens)
Construct: truncated human FAK (376-1052 (end) amino acids)
Assay: Biochemical enzyme assay for FAK activity (Caliper LC3000 mobility shift)
Conditions: Table 3; 100 uM ATP; read-out: FAK IC50
Known IC50 of a selection of molecules

These solved cases illustrate the format of a correct answer.
Nc1ncccc1-c1nccc(NCc2cccnc2)n1 : > 10 µM
Fc1ccc(CNc2ccnc(-c3cncc(Cl)c3)n2)c(C(F)(F)F)c1 : < 0.1 µM
Fc1ccc(CNc2ccnc(-c3cncc(C(F)(F)F)c3)n2)c(C(F)(F)F)c1 : < 0.1 µM

In: Form field: reported IC50 of Cc1cc(NCc2cccc(C(F)(F)F)c2)nc(-c2cccnc2)n1
Out: > 10 µM
